# TARGET_OR_SYSTEM: T. brucei GlcNAc-PI de-N-acetylase (Trypanosoma brucei brucei)
# Sequence (Q8I8A5 entry or part of it): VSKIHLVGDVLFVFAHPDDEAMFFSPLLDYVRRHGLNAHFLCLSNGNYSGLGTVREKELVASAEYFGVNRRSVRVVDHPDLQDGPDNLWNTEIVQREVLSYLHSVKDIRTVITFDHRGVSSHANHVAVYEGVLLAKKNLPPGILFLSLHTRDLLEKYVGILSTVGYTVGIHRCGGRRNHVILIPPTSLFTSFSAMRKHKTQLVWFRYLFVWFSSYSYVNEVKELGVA
# ASSAY_OVERVIEW: Inhibition of turnover of α-D-GlcpNAc-IPC18 (3) in T. brucei cell-free system, LC-MS/MS assay
# Assay type: biochemical
# STATED_CONDITIONS: inhibition of turnover of 3; tested at 100 μM
READOUT_LABEL: Inhibitory activity (in words)

{"SMILES_STRUCTURE": "CCCCCCCCCCCCCCCCCCS(=O)(=O)N[C@@H]1CCCC[C@H]1O[C@@H]1O[C@H](CO)[C@@H](O)[C@H](O)[C@H]1NC(C)=O", "EXPERIMENTAL_VALUE": "inability"}
{"SMILES_STRUCTURE": "CCCCCCCCCCCCCCCCCCS(=O)(=O)N[C@@H]1CCCC[C@H]1O[C@H]1O[C@H](CO)[C@@H](O)[C@H](O)[C@H]1NC(C)=O", "EXPERIMENTAL_VALUE": "inability"}
{"SMILES_STRUCTURE": "CCCCCCCCCCCCCCCCCCOP(=O)(O)O[C@@H]1CCCC[C@H]1O[C@H]1O[C@H](CO)[C@@H](O)[C@H](O)[C@H]1NC(C)=O", "EXPERIMENTAL_VALUE": "act as inhibitors"}
{"SMILES_STRUCTURE": "CCCCCCCCCCCCCCCCCCOP(=O)(O)O[C@@H]1CCCC[C@H]1O[C@@H]1O[C@H](CO)[C@@H](O)[C@H](O)[C@H]1NC(C)=O", "EXPERIMENTAL_VALUE": "act as inhibitors"}
